target: HPK1; assay: HPK1 Lantha Binding Assay ("Lanth"); details: Table B1-1, read-out: HPK1 Ki (μM) (Lanth)
value.kind: Ki (nM)

>  <chemical.smiles>
CNC(=O)Nc1cc2cc(-c3cnn(C)c3)nc(N)c2cn1

>  <quantitative.result>
7.16

$$$$
>  <chemical.smiles>
CCc1ccncc1-c1cc2cc(Nc3cc(C(=O)N(C)CC)ccn3)ncc2c(N)n1

>  <quantitative.result>
0.3

$$$$
>  <chemical.smiles>
Cc1ccncc1-c1cc2cc(NC(=O)C(C)(C)C#N)ncc2c(N)n1

>  <quantitative.result>
5540

$$$$
>  <chemical.smiles>
Cc1ccncc1-c1cc2cc(NC(=O)[C@H]3C[C@@H]3c3cnn(C)c3)ncc2c(N)n1

>  <quantitative.result>
0.027

$$$$

I: Cc1ccncc1-c1cc2cc(NC(=O)N[C@H]3CCC[C@@H]3O)ncc2c(N)n1
II: Cc1ccncc1-c1cc2cc(NC(=O)[C@@H]3C[C@H]3c3cnn(CCOCCN)c3)ncc2c(N)n1
### Prompt # min-compare on Ki between I and II State the label of the item chosen.
### Response II

* * *

target: HPK1; experiment: HPK1 Lantha Binding Assay ("Lanth"); settings: Table B1-2, read-out: HPK1 Ki, L = Lanth
value.kind: Ki (nM)

Take a look at these entries with their results.
>  <compound>
Cc1ccncc1-c1cc2cc(NC(=O)[C@H]3[C@@H]4CC(NS(C)(=O)=O)C[C@@H]43)ncc2c(N)n1 (stereo partly shown)

>  <value.kind>
Ki

>  <unit.label>
nM

>  <quantitative.result>
96

$$$$
>  <compound>
Cc1cccc(F)c1-c1cc2cc(Nc3cc4n(n3)CC(=O)N(C)CC4)ncc2c(N)n1

>  <value.kind>
Ki

>  <unit.label>
nM

>  <quantitative.result>
0.02

$$$$

A: Cc1cccc(F)c1-c1cc2cc(NC(=O)[C@H]3[C@@H](C)[C@@H]3c3cnn(C)c3)ncc2c(N)n1
B: Cc1cccc(F)c1-c1cc2cc(NC(=O)[C@@H]3[C@H](C)[C@H]3c3cnn(C)c3)ncc2c(N)n1 (single isomer, unassigned)
### Prompt Which value of Ki is numerically greater: that of A or that of B ? Record your answer as the label of the chosen record.
### Response A
(A: 1.8 nM, B: 0.3 nM)

* * *

target: HPK1 (Homo sapiens); assay: HPK1 Lantha Binding Assay ("Lanth"); settings: Table B1-1, read-out: HPK1 Ki (μM) (Lanth)
Sequence (Q92918 whole entry, looked up): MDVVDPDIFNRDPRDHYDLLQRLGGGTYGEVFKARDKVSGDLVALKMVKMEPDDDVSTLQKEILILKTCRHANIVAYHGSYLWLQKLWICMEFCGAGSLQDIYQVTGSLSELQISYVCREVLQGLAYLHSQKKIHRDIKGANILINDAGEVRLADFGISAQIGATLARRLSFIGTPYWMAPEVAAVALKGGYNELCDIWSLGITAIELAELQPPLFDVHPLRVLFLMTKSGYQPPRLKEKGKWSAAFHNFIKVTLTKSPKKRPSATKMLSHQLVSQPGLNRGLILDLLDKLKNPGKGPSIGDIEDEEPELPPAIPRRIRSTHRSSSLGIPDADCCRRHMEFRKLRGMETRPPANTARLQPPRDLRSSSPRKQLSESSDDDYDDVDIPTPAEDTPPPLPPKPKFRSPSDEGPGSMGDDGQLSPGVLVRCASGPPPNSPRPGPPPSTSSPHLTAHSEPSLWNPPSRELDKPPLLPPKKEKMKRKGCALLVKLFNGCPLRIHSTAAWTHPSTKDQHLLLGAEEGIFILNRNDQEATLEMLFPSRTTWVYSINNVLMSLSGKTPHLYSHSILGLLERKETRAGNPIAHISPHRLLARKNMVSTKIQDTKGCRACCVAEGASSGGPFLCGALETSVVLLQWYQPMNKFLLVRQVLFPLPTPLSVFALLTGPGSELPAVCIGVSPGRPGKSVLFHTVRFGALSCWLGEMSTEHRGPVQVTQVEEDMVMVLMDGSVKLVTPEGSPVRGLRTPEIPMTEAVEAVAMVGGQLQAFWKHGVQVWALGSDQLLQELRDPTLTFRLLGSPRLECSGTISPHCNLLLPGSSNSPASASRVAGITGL
value.kind: Ki (nM)

Example entries and their recorded answers appear below.
>  <compound>
Cc1ccncc1-c1cc2cc(NC(=O)[C@@H]3C[C@]34CCN(S(C)(=O)=O)C4)ncc2c(N)n1 (racemic)

>  <Ki (nM)>
2.8

$$$$
>  <compound>
Cc1ccncc1-c1cc2cc(NC(=O)[C@@H]3C[C@H]3C)ncc2c(N)n1 (racemic)

>  <Ki (nM)>
0.476

$$$$
>  <compound>
Cc1ccncc1-c1cc2cc(Nc3cc(C(C)O)n(C)n3)ncc2c(N)n1 (racemic)

>  <Ki (nM)>
0.026

$$$$
>  <compound>
Nc1nc(-c2ccc[nH]c2=O)cc2cc(NC(=O)C3CC3)ncc12

>  <Ki (nM)>
5800

$$$$
>  <compound>
Nc1nc(-c2cccnc2)cc2cc(NC(=O)[C@@H]3C[C@@H]3F)ncc12 (racemic)

>  <Ki (nM)>
4.97

$$$$

A: Cc1nn(C)c(C)c1-c1cc2cc(NC(=O)[C@@H]3C[C@@H]3F)ncc2c(N)n1 (racemic)
B: N#C[C@@H]1C[C@H]1C(=O)Nc1cc2cc(-c3cn[nH]c3)nc(N)c2cn1 (racemic)
### Prompt Pick one: A or B . Which has the bigger Ki number? Write the label of whichever entry you select.
### Response A
